The measured values listed here are drawn from patent US20190330290A1.

- Tested on: pRB
- method: pRB phosphorylation level, immunofluorescence staining quantified with ImageJ
- Assay type: cell-based, human
- experimental-conditions: MG63 cells; alginate matrix with cyclic GFR-binding peptide + SiRNA Integrin alpha 3 + SiRNA Integrin beta 1; 48 h; 400 ng/mL GFR-binding compound
Where no end group is shown, it is not given here.
Task for the reader: assign each of the following sequences its reported pRB (%).
Could you write the number and then its unit?

Query: Endpoint output: pRB (%) of GGGGGGGGGDDSSNVISTPPTSSSRVQLSAISMLYLDDSSNVI (also: cyclic (mode not given here)) [SEQ ID NO: 4725] . Value?
Reply: 6%

Query: Another: AAAAAAAAADAANNVVKIPKASSTQVRLRSVKTAKVDAANNVV (also: cyclic) [SEQ ID NO: 4740]
Reply: 15%

Query: Another: GGGGGGGGGDENEKVVRVPSTSSTQVKMSAISMLYLDENEKVV (also: cyclic (mode not given here)) [SEQ ID NO: 4726]
Reply: 10%

Query: Another: AAAAAAAAADENEKVVKIPKASSVPTKMKPLSVLYVDDSSNVI (also: cyclic (mode not given here)) [SEQ ID NO: 4734]
Reply: 12%
